test system: Escherichia coli TOP10; assay: shrunken log2 fold change of peptide-encoding DNA abundance (4.5 h post-induction vs induction); higher = less antimicrobial activity (less host growth inhibition); settings: time post-induction: 4.5 h; library: site-saturation at positions 5, 18, 19, 20
OBSERVED PROPERTY: shrunken log2 fold change
Please give the numeric answer without any surrounding text.

Sample answers from the record:
RRIRGRPPRLPRPRPRPCMRPRP : 0.767
RRIRTRPPRLPRPRPRPFIEPRP : -0.553
RRIRCRPPRLPRPRPRPECYPRP : -0.238
RRIRFRPPRLPRPRPRPYREPRP : -0.468
RRIRWRPPRLPRPRPRPWAAPRP : 0.351

Record request: shrunken log2 fold change value, item RRIRWRPPRLPRPRPRPTTTPRP 0.567

And the next one, RRIRARPPRLPRPRPRPHFTPRP ? 0.345

---

system: Escherichia coli TOP10; test: shrunken log2 fold change of peptide-encoding DNA abundance (4.5 h post-induction vs induction); higher = less antimicrobial activity (less host growth inhibition); conditions: time post-induction: 4.5 h; library: site-saturation at positions 5, 18, 19, 20
Overview of reported shrunken log2 fold change across a group of sequences:
Please give the numeric answer without any surrounding text.

Sample answers from the record:
RRIRWRPPRLPRPRPRPLRFPRP : 0.399
RRIRARPPRLPRPRPRPRGQPRP : 0.666
RRIRQRPPRLPRPRPRPQMCPRP : 0.109

Record request: shrunken log2 fold change value, item RRIRFRPPRLPRPRPRPVWNPRP -0.0763

And the next one, RRIRWRPPRLPRPRPRPFCEPRP ? 0.376

And the next one, RRIRPRPPRLPRPRPRPQEQPRP ? -0.0215

---

tested on: Escherichia coli TOP10; assay: shrunken log2 fold change of peptide-encoding DNA abundance (4.5 h post-induction vs induction); higher = less antimicrobial activity (less host growth inhibition); settings: time post-induction: 4.5 h; library: site-saturation at positions 5, 18, 19, 20
Overview of reported shrunken log2 fold change across a group of sequences:
Please give the numeric answer without any surrounding text.

Sample answers from the record:
RRIRHRPPRLPRPRPRPIPSPRP : -0.274
RRIRKRPPRLPRPRPRPGDGPRP : 3.56
RRIRWRPPRLPRPRPRPNQHPRP : -0.071
RRIRQRPPRLPRPRPRPMDIPRP : -0.155
RRIRFRPPRLPRPRPRPDNNPRP : -0.4
RRIRSRPPRLPRPRPRPLYGPRP : -0.565
RRIRLRPPRLPRPRPRPWDAPRP : 0.135
RRIRKRPPRLPRPRPRPWSTPRP : 0.0277

Record request: shrunken log2 fold change value, item RRIRNRPPRLPRPRPRPPLHPRP 0.0562

---

test system: Escherichia coli TOP10; experiment: shrunken log2 fold change of peptide-encoding DNA abundance (4.5 h post-induction vs induction); higher = less antimicrobial activity (less host growth inhibition); settings: time post-induction: 4.5 h; library: site-saturation at positions 5, 18, 19, 20
Overview of reported shrunken log2 fold change across a group of sequences:

RRIRGRPPRLPRPRPRPGTVPRP : 0.206
RRIRRRPPRLPRPRPRPGQWPRP : 0.312
RRIRPRPPRLPRPRPRPSWIPRP : -0.179
RRIRVRPPRLPRPRPRPARHPRP : 0.287
RRIRSRPPRLPRPRPRPRRFPRP : -0.0186
RRIRCRPPRLPRPRPRPWPPPRP : 1.08
RRIRHRPPRLPRPRPRPIRWPRP : 0.171
RRIRCRPPRLPRPRPRPPSWPRP : 0.194

Record request: shrunken log2 fold change value, item RRIRSRPPRLPRPRPRPQWGPRP -0.0633

And the next one, RRIRNRPPRLPRPRPRPCGAPRP ? 0.144

And the next one, RRIRWRPPRLPRPRPRPVMDPRP ? -0.385

And the next one, RRIRRRPPRLPRPRPRPSYNPRP ? -0.16

And the next one, RRIRTRPPRLPRPRPRPQSCPRP ? 0.057

And the next one, RRIRIRPPRLPRPRPRPTIRPRP ? -0.995

And the next one, RRIRPRPPRLPRPRPRPVFTPRP ? -0.0534

---

system: Escherichia coli TOP10; assay: shrunken log2 fold change of peptide-encoding DNA abundance (4.5 h post-induction vs induction); higher = less antimicrobial activity (less host growth inhibition); conditions: time post-induction: 4.5 h; library: site-saturation at positions 5, 18, 19, 20
Answer class 0 if shrunken log2 fold change is under -0.2, and class 1 if it is -0.2 or more.

RRIRMRPPRLPRPRPRPINRPRP : class 1
RRIRTRPPRLPRPRPRPAMVPRP : class 0
RRIRGRPPRLPRPRPRPHFTPRP : class 1
RRIRCRPPRLPRPRPRPPFYPRP : class 1

Then there is this sequence:
Record RRIRHRPPRLPRPRPRPVSTPRP ; criterion: shrunken log2 fold change no lower than -0.2. Met? class 0

---

tested on: Escherichia coli TOP10; assay: shrunken log2 fold change of peptide-encoding DNA abundance (4.5 h post-induction vs induction); higher = less antimicrobial activity (less host growth inhibition); conditions: time post-induction: 4.5 h; library: site-saturation at positions 5, 18, 19, 20
Overview of reported shrunken log2 fold change across a group of sequences:
Please give the numeric answer without any surrounding text.

Record request: shrunken log2 fold change value, item RRIRKRPPRLPRPRPRPNKHPRP -0.122

And the next one, RRIRCRPPRLPRPRPRPYGTPRP ? 0.016

And the next one, RRIRRRPPRLPRPRPRPARLPRP ? 0.269

---

system: Escherichia coli TOP10; assay: shrunken log2 fold change of peptide-encoding DNA abundance (4.5 h post-induction vs induction); higher = less antimicrobial activity (less host growth inhibition); settings: time post-induction: 4.5 h; library: site-saturation at positions 5, 18, 19, 20
OBSERVED PROPERTY: shrunken log2 fold change
Please give the numeric answer without any surrounding text.

Sample answers from the record:
RRIRHRPPRLPRPRPRPGQFPRP : -0.0207
RRIRHRPPRLPRPRPRPGAYPRP : -0.266
RRIRHRPPRLPRPRPRPGSFPRP : -0.176

Record request: shrunken log2 fold change value, item RRIRWRPPRLPRPRPRPMRKPRP 1.4

And the next one, RRIRIRPPRLPRPRPRPYIIPRP ? -0.403

And the next one, RRIRNRPPRLPRPRPRPDVVPRP ? -0.0975

And the next one, RRIRKRPPRLPRPRPRPQPNPRP ? 0.159

And the next one, RRIRNRPPRLPRPRPRPIQNPRP ? -0.139

And the next one, RRIRIRPPRLPRPRPRPHFEPRP ? -0.377

And the next one, RRIRPRPPRLPRPRPRPPEDPRP ? 0.695

And the next one, RRIRARPPRLPRPRPRPWDFPRP ? -0.00352

And the next one, RRIRPRPPRLPRPRPRPRTHPRP ? 0.107

And the next one, RRIRQRPPRLPRPRPRPTIMPRP ? -0.127

And the next one, RRIRLRPPRLPRPRPRPFAQPRP ? 0.18

And the next one, RRIRERPPRLPRPRPRPPHGPRP ? 0.19

---

system: Escherichia coli TOP10; assay: shrunken log2 fold change of peptide-encoding DNA abundance (4.5 h post-induction vs induction); higher = less antimicrobial activity (less host growth inhibition); settings: time post-induction: 4.5 h; library: site-saturation at positions 5, 18, 19, 20
Overview of reported shrunken log2 fold change across a group of sequences:
Please give the numeric answer without any surrounding text.

Sample answers from the record:
RRIRKRPPRLPRPRPRPKCNPRP : -0.0341
RRIRWRPPRLPRPRPRPRAIPRP : 0.539
RRIRVRPPRLPRPRPRPWNYPRP : -0.0949

Record request: shrunken log2 fold change value, item RRIRVRPPRLPRPRPRPMCWPRP 0.00173

And the next one, RRIRHRPPRLPRPRPRPWMFPRP ? -0.119

And the next one, RRIRWRPPRLPRPRPRPEKLPRP ? 0.225

And the next one, RRIRIRPPRLPRPRPRPIVWPRP ? 0.136

And the next one, RRIRSRPPRLPRPRPRPVFIPRP ? -0.598

---

system: Escherichia coli TOP10; experiment: shrunken log2 fold change of peptide-encoding DNA abundance (4.5 h post-induction vs induction); higher = less antimicrobial activity (less host growth inhibition); details: time post-induction: 4.5 h; library: site-saturation at positions 5, 18, 19, 20;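 further: peptides expressed intracellularly from a pBAD plasmid library in pooled LB shake-flask culture, induced with 0.3% L-arabinose, DNA abundance read by NGS, three biological replicates, DESeq2 with apeglm shrinkage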
Answer rule not met if shrunken log2 fold change is under -0.009, and rule met if it is -0.009 or more.

Solved entries:
RRIRNRPPRLPRPRPRPWHYPRP : rule not met
RRIRPRPPRLPRPRPRPMCCPRP : rule not met
RRIRNRPPRLPRPRPRPHGYPRP : rule not met

Record RRIRGRPPRLPRPRPRPAGPPRP ; criterion: shrunken log2 fold change no lower than -0.009. Met? rule met

And the next one, RRIRWRPPRLPRPRPRPEYQPRP ? rule met
